- assayed target: CYP1A2 (Homo sapiens, UniProt P05177)
- Construct: from tissue; host or cells: human liver microsomes
- Sequence (P05177 whole entry): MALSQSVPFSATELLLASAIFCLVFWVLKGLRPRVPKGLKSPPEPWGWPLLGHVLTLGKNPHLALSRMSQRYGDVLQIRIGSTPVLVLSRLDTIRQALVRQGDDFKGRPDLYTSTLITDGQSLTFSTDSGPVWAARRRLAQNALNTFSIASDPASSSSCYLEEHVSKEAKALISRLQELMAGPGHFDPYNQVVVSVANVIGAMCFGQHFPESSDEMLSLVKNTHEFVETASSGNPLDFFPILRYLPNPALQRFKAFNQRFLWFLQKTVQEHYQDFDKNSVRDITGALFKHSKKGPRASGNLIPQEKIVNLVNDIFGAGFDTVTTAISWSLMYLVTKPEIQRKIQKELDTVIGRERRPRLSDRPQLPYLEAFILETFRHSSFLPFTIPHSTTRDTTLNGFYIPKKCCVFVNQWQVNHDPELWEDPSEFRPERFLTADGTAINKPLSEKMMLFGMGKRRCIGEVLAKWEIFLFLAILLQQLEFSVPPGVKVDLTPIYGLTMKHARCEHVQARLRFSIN
- assay text: CYP enzyme single point inhibition, human liver microsomes, 1A2
- Assay type: in vitro ADME
- measurement setup: single point method
experimental endpoint: IC50 (nM)
Just the number please, in nM, no unit attached.

Lookup: Entry C=CC(=O)N1C[C@H](C)N(c2nc(=O)n(-c3c(SC)ccnc3C(C)C)c3nc(-c4c(N)ccc(Cl)c4F)c(Cl)cc23)C[C@H]1C (single isomer, unassigned) has what IC50?
Found: 66.7

* * *

fraction unbound at 6 h, 5 μM overview
- assay text: Plasma protein binding rate, mouse plasma
- Type: in vitro ADME
- measurement setup: 37° C.
Enter the number alone.

// below: answered compounds
Lookup: Entry C=CC(=O)N1C[C@H](C)N(c2nc(=O)n(-c3c(SC)ccnc3C(C)C)c3nc(-c4c(O)cccc4F)c(Cl)cc23)C[C@H]1C (single isomer, unassigned) [Embodiment 166-1] has what fraction unbound at 6 h, 5 μM?
Found: 0.037

Lookup: Entry C=CC(=O)N1C[C@H](C)N(c2nc(=O)n(-c3c(SC)ccnc3C(C)C)c3nc(-c4c(N)ccc(Cl)c4F)c(Cl)cc23)C[C@H]1C (single isomer, unassigned) [Embodiment 165-1] has what fraction unbound at 6 h, 5 μM?
Found: 0.061

***
Lookup: Entry C=CC(=O)N1C[C@H](C)N(c2nc(=O)n(-c3c(SC)ccnc3C(C)C)c3nc(-c4c(O)cccc4F)c(F)cc23)C[C@H]1C (single isomer, unassigned) [Embodiment 114-1] has what fraction unbound at 6 h, 5 μM?
Found: 0.116

* * *

- Test system: Mia PaCa-2 cells (KRAS G12C mutant cell line)
- assay text: Inhibition of Mia PaCa-2 cell proliferation (CellTiter-Glo, 72 h)
- Type: cell-based, human
experimental endpoint: pIC50
// pIC50: -log10(molar conc.)

// below: answered molecules
Lookup: Entry C=CC(=O)N1CCN(c2nc(=O)n(-c3c(SC)ccnc3C(C)C)c3nc(-c4c(F)cccc4SC)c(F)cc23)[C@@H](C)C1 has what pIC50?
Found: 7.33

Lookup: Entry C=CC(=O)N1CCN(c2nc(=O)n(-c3c(SC)ccnc3C(C)C)c3nc(-c4c(O)cccc4F)c(Cl)cc23)[C@@H](C)C1 has what pIC50?
Found: 7.39

***
Lookup: Entry C=CC(=O)N1CCN(c2nc(=O)n(-c3c(C)ccnc3C(C)C)c3nc(-c4ccccc4SC)c(F)cc23)[C@@H](C)C1 has what pIC50?
Found: 6.98

Lookup: Entry C=CC(=O)N1CCN(c2nc(=O)n(-c3c(SC)ccnc3C(C)C)c3nc(-c4c(F)cccc4F)c(F)cc23)[C@@H](C)C1 has what pIC50?
Found: 7.17

Lookup: Entry C=CC(=O)N1CCN(c2nc(=O)n(-c3c(C)ccnc3CC(C)C)c3nc(-c4c(F)cccc4SCC)c(F)cc23)[C@@H](C)C1 has what pIC50?
Found: 7.09

* * *

- assayed target: human KRAS G12C protein (Homo sapiens, UniProt P01116, G12C)
- Construct: purchased Beijing SinoBiological Co., Ltd. 12259-H07E2
- assay text: Thermal shift: melting temperature of KRAS G12C protein
- Format: binding
- measurement setup: compound 10 μM; Tm minus Tm of DMSO solvent control
Just a reminder that ties go to rule not met: only ΔTm at 10 µM strictly below 10 °C counts as rule met.

Some entries whose results are on file:
Lookup: Check if ΔTm at 10 µM falls below 10 °C for C=CC(=O)N1C[C@H](C)N(c2nc(=O)n(-c3c(SC)ccnc3C(C)C)c3nc(-c4c(O)cccc4F)c(F)cc23)C[C@H]1C .
Found: rule met

Lookup: Check if ΔTm at 10 µM falls below 10 °C for C=CC(=O)N1CCN(c2nc(=O)n(-c3c(S(C)(=O)=O)ccnc3C(C)C)c3nc(-c4c(O)cccc4F)c(Cl)cc23)[C@@H](C)C1 .
Found: rule not met

Lookup: Check if ΔTm at 10 µM falls below 10 °C for C=CC(=O)N1CCN(c2nc(=O)n(-c3c(SC)ccnc3C(C)C)c3nc(-c4c(O)cccc4F)c(F)cc23)[C@@H](C)C1 .
Found: rule not met

***
Lookup: Check if ΔTm at 10 µM falls below 10 °C for C=CC(=O)N1CCN(c2nc(=O)n(-c3c(SC)cc(C)nc3C(C)C)c3nc(-c4c(O)cccc4F)c(F)cc23)[C@@H](C)C1 .
Found: rule not met

Lookup: Check if ΔTm at 10 µM falls below 10 °C for C=CC(=O)N1CCN(c2nc(=O)n(-c3c(SC)ccnc3C(C)C)c3nc(-c4c(N)ccc(Cl)c4F)c(Cl)cc23)[C@@H](C)C1 .
Found: rule not met
